molecular target: PD-1/PD-L1 (Homo sapiens); test: PD-1/PD-L1 biochemical protein-protein interaction assay (ALPHA); conditions: 0.3 nM His tagged PD-L1, 2.5 nM biotinylated Fc-PD-1, 60 minutes at 25° C., read-out: IC50 PD-L1-PD-1 Alpha IC50-mono PD-L1-fcP-D1
Sequence (Q9NZQ7 19-238 limits assumed): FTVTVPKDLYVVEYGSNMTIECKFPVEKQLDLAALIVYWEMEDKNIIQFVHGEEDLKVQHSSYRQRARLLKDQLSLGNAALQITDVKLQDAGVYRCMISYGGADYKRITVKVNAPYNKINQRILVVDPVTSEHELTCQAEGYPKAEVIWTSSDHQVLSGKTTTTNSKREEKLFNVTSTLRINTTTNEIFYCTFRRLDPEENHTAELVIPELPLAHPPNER
Measured Attribute: log10 of IC50 (log10 of the value in nM)
Units before log transform: nM; reported quantity: IC50; transform: log10.

A selection of reference data follows.
INSERT INTO measurements (compound, result) VALUES
  ('COc1nc(-c2cccc(-c3csc(-c4cnc(CNC[C@@H]5CCC(=O)N5)c(OC)n4)c3)c2Cl)ccc1CNC[C@@H]1CCC(=O)N1', -0.41),
  ('COc1nc(-c2cccc(-c3cccc(-c4ccc5c(c4)C[C@@H](N)C5)c3Cl)c2Cl)ccc1C1=NCCN1', -0.62),
  ('Cc1c(COc2nc(OCc3cncc(C#N)c3)c(CNC[C@H](O)CC(=O)O)cc2Br)cccc1-c1cccc(COc2nc(OCc3cncc(C#N)c3)c(CNC[C@H](O)CC(=O)O)cc2Br)c1C', -0.52),
  ('Cc1c(COc2cc(OCc3cncc(C#N)c3)c(CNC[C@@H](O)CC(=O)O)cc2Cl)cccc1-c1cccc(-c2ccc3c(CNC[C@H]4CCC(=O)N4)ccnc3c2)c1C', 0.21);

Qu. Param readout= log10 of IC50; system= PD-1/PD-L1 (Homo sapiens); entry= Cc1c(COc2cc(OCc3cncc(C#N)c3)c(CNC[C@@H](O)CC(=O)O)cc2Cl)cccc1-c1cccc(-c2ccc3c(CCNC[C@@H](O)CC(=O)O)coc3c2)c1C ; returns value.
Ans. -0.91

Qu. Report log10 of IC50 for Cc1c(COc2cc(OCc3cncc(C#N)c3)c(CN[C@@](C)(CO)C(=O)O)cc2Cl)cccc1-c1cccc(-c2ccc(OCCN3CCC4(CC3)CNC(=O)C4)cc2)c1C tested on PD-1/PD-L1 (Homo sapiens).
Ans. -1.19

Qu. Param readout = log10 of IC50; param system = PD-1/PD-L1 (Homo sapiens); param query = Cc1c(COc2cc(OCc3cncc(C#N)c3)c(CN3CC[C@@H](O)C3)cc2Cl)cccc1-c1cccc(-c2ccc(OCCNC[C@@H](O)CC(=O)O)cc2)c1C ; response: value
Ans. -0.77

Qu. For PD-1/PD-L1 (Homo sapiens), provide log10 of IC50 of COc1cc(OCc2cccc(-c3cccc(COc4cc(OC)c(CNC[C@@H](O)CC(=O)O)cc4Cl)c3C)c2C)c(Cl)cc1CNC[C@@H](O)CC(=O)O please.
Ans. -0.70

Qu. Given the entry COc1nc(OC2CCc3c(-c4cccc5c4CCC5Oc4ccc(CNC[C@@H](O)CC(=O)O)c(OC)n4)cccc32)ccc1CNC[C@@H](O)CC(=O)O (stereo partly shown) , what log10 of IC50 was observed with PD-1/PD-L1 (Homo sapiens)?
Ans. 0.34

Qu. Give the reported log10 of IC50 for Cc1c(COc2ccc(CNC[C@@H](O)CC(=O)O)c(OCc3cncc(C#N)c3)n2)cccc1-c1cccc(COc2ccc(CNC[C@@H](O)CC(=O)O)c(OCc3cncc(C#N)c3)n2)c1C (system: PD-1/PD-L1 (Homo sapiens)).
Ans. -0.70

Qu. # returns recorded log10 of IC50 (system: PD-1/PD-L1 (Homo sapiens)) for COc1nc(O[C@H]2CCc3c(-c4cccc(-c5ccc(CNC[C@@H]6CCC(=O)N6)cc5)c4Cl)cccc32)c(Cl)cc1CN[C@@H]1CCC[C@@H]1O
Ans. -0.24

Qu. Lab request: please report log10 of IC50 under test system PD-1/PD-L1 (Homo sapiens) for Cc1c(COc2cc(OCc3cccnc3)c(CNCCO)cc2Cl)cccc1-c1cccc(COc2cc(OCc3cccnc3)c(CNCCO)cc2Cl)c1C
Ans. 1.54

Qu. Hi! What's the reported log10 of IC50 for COc1nc(OCc2cccc(-c3cccc(COc4ccc(CN[C@H](CO)C(=O)O)c(OC)n4)c3C)c2C)ccc1CN[C@H](CO)C(=O)O on PD-1/PD-L1 (Homo sapiens)?
Ans. 0.32

Qu. Query log10 of IC50 on PD-1/PD-L1 (Homo sapiens) for COc1nc(-c2cccc(-c3cccc(-c4ccc5ncc(CNC[C@@H]6CCC(=O)N6)n5c4)c3Cl)c2Cl)ccc1CNC[C@@H]1CCC(=O)N1
Ans. -0.25

Qu. Field: log10 of IC50 (PD-1/PD-L1 (Homo sapiens)). Entry: Cc1c(COc2cc(OCc3cncc(C#N)c3)c(CNCc3ncc[nH]3)cc2Br)cccc1-c1cccc(COc2cc(OCc3cncc(C#N)c3)c(CNCc3ncc[nH]3)cc2Br)c1C
Ans. 2.08

Qu. Lab note: need log10 of IC50 for CS(=O)(=O)c1cncc(COc2nc(OCc3cccc(-c4cccc(-c5ccc6c(c5)C[C@@H](N)C6)c4Cl)c3Cl)c(Br)cc2CN2CCCC[C@H]2C(=O)O)c1 on PD-1/PD-L1 (Homo sapiens), anyone have it?
Ans. -1.05

Qu. Request: log10 of IC50, test system PD-1/PD-L1 (Homo sapiens), entry Cc1c(COc2cc(OCc3cncc(C#N)c3)c(CN[C@@](C)(CO)C(=O)O)cc2Cl)cccc1-c1cccc(-c2ccc(CNCCS(C)(=O)=O)cc2)c1C
Ans. -1.04

Qu. Form: Entry = COc1nc(O[C@H]2CCc3c(-c4cccc(-c5cnc(CN6CC(C)(O)C6)c(OC)n5)c4Cl)cccc32)c(Cl)cc1CN1CC[C@H](C(=O)O)C1 | System = PD-1/PD-L1 (Homo sapiens) | log10 of IC50 = ____
Ans. -1.19

Qu. Item: Cc1c(COc2ccc(CNC[C@@H](O)CC(=O)O)c(OCc3cncc(C#N)c3)c2)cccc1-c1cccc(COc2ccc(CNC[C@@H](O)CC(=O)O)c(OCc3cncc(C#N)c3)c2)c1C Test system: PD-1/PD-L1 (Homo sapiens) Read-out: log10 of IC50 Value: ?
Ans. -0.70
